Data provenance is paper PMC12719032.

Target: T1, MglB-MglC complex (preformed) (M. xanthus, UniProt Q1DB03 1-159; Q1D0B6 1-120)
T1 construct: MglB of Myxococcus xanthus, Uniprot ID Q1DB03; as m7; MglC of Myxococcus xanthus, Uniprot ID Q1D0B6; as m1; also called MglBC; source: purified proteins from E. coli Rosetta (DE3), MglB and MglC premixed in a 2:1 ratio; copies: 4 + 2
T1 sequence (looked up) 1: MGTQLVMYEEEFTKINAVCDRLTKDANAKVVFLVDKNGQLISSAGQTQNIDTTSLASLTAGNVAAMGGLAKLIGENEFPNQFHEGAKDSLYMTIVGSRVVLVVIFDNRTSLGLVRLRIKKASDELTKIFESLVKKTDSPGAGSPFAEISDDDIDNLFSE
T1 sequence (looked up) 2: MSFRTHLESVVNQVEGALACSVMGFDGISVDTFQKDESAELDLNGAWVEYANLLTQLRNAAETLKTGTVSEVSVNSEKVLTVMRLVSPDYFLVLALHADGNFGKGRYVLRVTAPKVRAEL
Test: BLI; Octet RED 96; RomR^371-420 immobilised on AR2G sensors by EDC/NHS; MglB-MglC complex in solution; 20 mM HEPES pH 8.0, 150 mM NaCl, 10% glycerol; 2:1 (heterogeneous ligand) model and steady state analysis
Settings: both partners purified
REPORTED METRIC: Kd (nM)

- DGGEALLREALSKASREVIEKIAWEVVPQLAETIIREELERLIKDRETQH (domain or fragment, M. xanthus, UniProt Q1D3Z1 371-420, looked up, synthetic gene from Invitrogen, cloned in pET-Duet-A with a TEV site; no tag cleavage is described; Trimer by SEC-SAXS; also called RomR C-terminal helix; helical domain of RomR; source: E. coli Rosetta (DE3), purified (Ni-NTA, SEC); not shown: His tag, N-terminal, kept) [RomR^371-420 (C-terminal helix of RomR, residues 371-420)]: 280
